Test system: Acinetobacter baumanii
Protocol Summary: Single-point BisEDT-antibiotic combination FICI
Format: cell-based
Condition Description: Abau 2594
Exercise: state measured FICI, single-point BisEDT-antibiotic combination for each of the compounds provided.
Give the figure by itself; no unit, no explanation.

QUERY: # return FICI, single-point BisEDT-antibiotic combination for C[C@@H]1O[C@@H]1P(=O)(O)O [Phosphomycin] , test system: Acinetobacter baumanii
RESULT: 1.12

QUERY: # return FICI, single-point BisEDT-antibiotic combination for CCN1CCN(C(=O)N[C@@H](C(=O)N[C@@H]2C(=O)N3[C@@H]2SC(C)(C)[C@@H]3C(=O)O)c2ccccc2)C(=O)C1=O [Piperacillin] , test system: Acinetobacter baumanii
RESULT: 1.12

QUERY: # return FICI, single-point BisEDT-antibiotic combination for CN(C)[C@@H]1C(O)=C(C(N)=O)C(=O)[C@@]2(O)C(O)=C3C(=O)c4c(O)cccc4[C@@](C)(O)[C@H]3C[C@@H]12 [Tetracycline] , test system: Acinetobacter baumanii
RESULT: 1.12

QUERY: # return FICI, single-point BisEDT-antibiotic combination for C[C@H]1[C@H](NC(=O)/C(=N\OC(C)(C)C(=O)O)c2csc(N)n2)C(=O)N1S(=O)(=O)O [Aztreonam] , test system: Acinetobacter baumanii
RESULT: 0.87
